Target: human TAS2R4 (Homo sapiens, UniProt Q9NYW5)
Construct: expressed in transfected cells; host or cells: HEK293T-Gα16gust44
Test: Calcium imaging assay (FLIPR), HEK293T-Gα16gust44 cells transfected with human TAS2R4; further: test concentration or dose not given here
Type: cell-based
Conditions: Time (s) 137.547
# Lookup of reported RLU, fluorescence trace keyed by entry

- compound_smiles: "C[C@H](CCC(=O)NCCS(=O)(=O)O)[C@H]1CC[C@H]2[C@@H]3CC[C@@H]4C[C@H](O)CC[C@]4(C)[C@H]3CC[C@]12C"
  assay_value: "251.257 RLU"
- compound_smiles: "C[C@H](CCC(=O)NCC(=O)O)[C@H]1CC[C@H]2[C@@H]3[C@H](O)C[C@@H]4C[C@H](O)CC[C@]4(C)[C@H]3C[C@H](O)[C@]12C"
  assay_value: "379.772 RLU"

Please give the documented RLU, fluorescence trace of `C[C@H](CCC(=O)NCCS(=O)(=O)O)[C@H]1CC[C@H]2[C@@H]3[C@H](O)C[C@@H]4C[C@H](O)CC[C@]4(C)[C@H]3C[C@H](O)[C@]12C`
524.559 RLU

Please give the documented RLU, fluorescence trace of `C[C@H](CCC(=O)O)[C@H]1CC[C@H]2[C@@H]3[C@@H](O)C[C@@H]4C[C@H](O)CC[C@]4(C)[C@H]3CC[C@]12C`
211.548 RLU

Please give the documented RLU, fluorescence trace of `C[C@H](CCC(=O)O)[C@H]1CC[C@H]2[C@@H]3CC[C@@H]4C[C@H](O)CC[C@]4(C)[C@H]3C[C@H](O)[C@]12C`
342.47 RLU

Please give the documented RLU, fluorescence trace of `C[C@H](CCC(=O)O)[C@H]1CC[C@H]2[C@@H]3[C@H](O)C[C@@H]4C[C@H](O)CC[C@]4(C)[C@H]3C[C@H](O)[C@]12C`
436.003 RLU

* * *

# Lookup of reported RLU, fluorescence trace keyed by entry
Molecular target: human TAS2R4 (Homo sapiens)
Construct: expressed in transfected cells; host or cells: HEK293T-Gα16gust44
Sequence (Q9NYW5 1-299): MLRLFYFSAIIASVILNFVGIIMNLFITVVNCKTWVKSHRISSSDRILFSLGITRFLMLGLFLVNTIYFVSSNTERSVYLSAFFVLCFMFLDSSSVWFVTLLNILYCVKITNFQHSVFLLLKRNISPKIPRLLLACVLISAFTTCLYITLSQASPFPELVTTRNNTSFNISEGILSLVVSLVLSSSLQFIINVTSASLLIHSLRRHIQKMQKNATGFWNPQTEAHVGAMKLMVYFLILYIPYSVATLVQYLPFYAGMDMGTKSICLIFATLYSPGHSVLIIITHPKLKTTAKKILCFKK
Experiment: Calcium imaging assay (FLIPR), HEK293T-Gα16gust44 cells transfected with human TAS2R4; further: test concentration or dose not given here
Format: cell-based
Conditions: Time (s) 122.781 (TCA, TLCA: 122.782)
The figure you give is taken to be in RLU; do not add the unit.

- compound_smiles: "C[C@H](CCC(=O)NCCS(=O)(=O)O)[C@H]1CC[C@H]2[C@@H]3CC[C@@H]4C[C@H](O)CC[C@]4(C)[C@H]3CC[C@]12C"
  RLU, fluorescence trace [RLU]: 280.896
- compound_smiles: "C[C@H](CCC(=O)O)[C@H]1CC[C@H]2[C@@H]3[C@@H](O)C[C@@H]4C[C@H](O)CC[C@]4(C)[C@H]3CC[C@]12C"
  RLU, fluorescence trace [RLU]: 238.721
- compound_smiles: "C[C@H](CCC(=O)O)[C@H]1CC[C@H]2[C@@H]3[C@H](O)C[C@@H]4C[C@H](O)CC[C@]4(C)[C@H]3C[C@H](O)[C@]12C"
  RLU, fluorescence trace [RLU]: 489.541
- compound_smiles: "C[C@H](CCC(=O)NCCS(=O)(=O)O)[C@H]1CC[C@H]2[C@@H]3[C@H](O)C[C@@H]4C[C@H](O)CC[C@]4(C)[C@H]3C[C@H](O)[C@]12C"
  RLU, fluorescence trace [RLU]: 581.164
- compound_smiles: "C[C@H](CCC(=O)NCC(=O)O)[C@H]1CC[C@H]2[C@@H]3[C@H](O)C[C@@H]4C[C@H](O)CC[C@]4(C)[C@H]3C[C@H](O)[C@]12C"
  RLU, fluorescence trace [RLU]: 507.852

# evaluate next
Please give the documented RLU, fluorescence trace of `C[C@H](CCC(=O)O)[C@H]1CC[C@H]2[C@@H]3CC[C@@H]4C[C@H](O)CC[C@]4(C)[C@H]3C[C@H](O)[C@]12C`
364.894

* * *

Target: human TAS2R14 (Homo sapiens, UniProt Q9NYV8)
Construct: expressed in transfected cells; host or cells: HEK293T-Gα16gust44
Sequence (Q9NYV8 whole entry): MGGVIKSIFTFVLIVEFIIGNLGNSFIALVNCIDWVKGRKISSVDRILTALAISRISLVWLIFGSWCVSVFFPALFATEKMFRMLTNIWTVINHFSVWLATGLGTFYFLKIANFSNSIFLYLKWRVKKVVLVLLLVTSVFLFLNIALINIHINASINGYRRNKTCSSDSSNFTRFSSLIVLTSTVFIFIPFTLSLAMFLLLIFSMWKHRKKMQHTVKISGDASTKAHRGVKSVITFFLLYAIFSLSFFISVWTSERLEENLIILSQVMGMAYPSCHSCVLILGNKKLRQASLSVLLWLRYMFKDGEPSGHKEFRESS
Experiment: Calcium imaging assay (FLIPR), HEK293T-Gα16gust44 cells transfected with human TAS2R14
Type: cell-based
Conditions: TAS2R14 trace; Time (s) 42.797 (Chenodeoxycholic Acid 42.781)
RLU strictly under 200 RLU means class 1; at 200 RLU or over means class 0.

The examples below pair each entry with its known result.
- molecule: "C[C@H](CCC(=O)NCCS(=O)(=O)O)[C@H]1CC[C@H]2[C@@H]3[C@H](O)C[C@@H]4C[C@H](O)CC[C@]4(C)[C@H]3C[C@H](O)[C@]12C [Taurocholic Acid, taurocholic acid]"
  category: "class 0"
- molecule: "C[C@H](CCC(=O)NCC(=O)O)[C@H]1CC[C@H]2[C@@H]3[C@H](O)C[C@@H]4C[C@H](O)CC[C@]4(C)[C@H]3C[C@H](O)[C@]12C [Glycocholic Acid, glycocholic acid]"
  category: "class 1"
- molecule: "C[C@H](CCC(=O)NCCS(=O)(=O)O)[C@H]1CC[C@H]2[C@@H]3CC[C@@H]4C[C@H](O)CC[C@]4(C)[C@H]3CC[C@]12C [Taurolithocholic Acid, taurolithocholic acid]"
  category: "class 1"
- molecule: "C[C@H](CCC(=O)O)[C@H]1CC[C@H]2[C@@H]3[C@H](O)C[C@@H]4C[C@H](O)CC[C@]4(C)[C@H]3CC[C@]12C [Chenodeoxycholic Acid, chenodeoxycholic acid]"
  category: "class 0"

Find out if reported RLU for C[C@H](CCC(=O)O)[C@H]1CC[C@H]2[C@@H]3[C@H](O)C[C@@H]4C[C@H](O)CC[C@]4(C)[C@H]3C[C@H](O)[C@]12C [Cholic Acid, cholic acid] is less than 200 RLU
class 0

* * *

# Lookup of reported RLU keyed by entry
Biological target: mouse Tas2r144 (Mus musculus)
Construct: expressed in transfected cells; host or cells: HEK293T-Gα16gust44
Sequence (Q7TQB8 whole entry): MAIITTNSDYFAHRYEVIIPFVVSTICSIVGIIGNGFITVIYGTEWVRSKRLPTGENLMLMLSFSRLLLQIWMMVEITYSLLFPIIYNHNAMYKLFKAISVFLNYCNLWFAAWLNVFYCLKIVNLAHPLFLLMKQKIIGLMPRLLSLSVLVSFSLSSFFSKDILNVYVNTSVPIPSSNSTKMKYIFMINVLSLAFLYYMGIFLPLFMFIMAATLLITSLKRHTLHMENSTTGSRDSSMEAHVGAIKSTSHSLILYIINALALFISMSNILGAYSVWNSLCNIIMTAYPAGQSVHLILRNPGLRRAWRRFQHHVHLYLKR
Test: Calcium imaging assay (FLIPR), HEK293T-Gα16gust44 cells transfected with mouse Tas2r144
Format: cell-based
Conditions: Time 92.781 s
The figure you give is taken to be in RLU; do not add the unit.

Below: 3 compounds and their reported RLU.
- compound_smiles: "C[C@H](CCC(=O)NCC(=O)O)[C@H]1CC[C@H]2[C@@H]3[C@H](O)C[C@@H]4C[C@H](O)CC[C@]4(C)[C@H]3C[C@H](O)[C@]12C"
  value_kind: "RLU"
  assay_value: 422.993
- compound_smiles: "C[C@H](CCC(=O)NCCS(=O)(=O)O)[C@H]1CC[C@H]2[C@@H]3[C@H](O)C[C@@H]4C[C@H](O)CC[C@]4(C)[C@H]3C[C@H](O)[C@]12C"
  value_kind: "RLU"
  assay_value: 529.823
- compound_smiles: "C[C@H](CCC(=O)NCCS(=O)(=O)O)[C@H]1CC[C@H]2[C@@H]3CC[C@@H]4C[C@H](O)CC[C@]4(C)[C@H]3CC[C@]12C"
  value_kind: "RLU"
  assay_value: 387.142

# evaluate next
Please give the documented RLU of `C[C@H](CCC(=O)O)[C@H]1CC[C@H]2[C@@H]3[C@H](O)C[C@@H]4C[C@H](O)CC[C@]4(C)[C@H]3C[C@H](O)[C@]12C`
576.256

* * *

Target: human TAS2R1 (Homo sapiens)
Construct: expressed in transfected cells; host or cells: HEK293T-Gα16gust44
Sequence (Q9NYW7 whole entry): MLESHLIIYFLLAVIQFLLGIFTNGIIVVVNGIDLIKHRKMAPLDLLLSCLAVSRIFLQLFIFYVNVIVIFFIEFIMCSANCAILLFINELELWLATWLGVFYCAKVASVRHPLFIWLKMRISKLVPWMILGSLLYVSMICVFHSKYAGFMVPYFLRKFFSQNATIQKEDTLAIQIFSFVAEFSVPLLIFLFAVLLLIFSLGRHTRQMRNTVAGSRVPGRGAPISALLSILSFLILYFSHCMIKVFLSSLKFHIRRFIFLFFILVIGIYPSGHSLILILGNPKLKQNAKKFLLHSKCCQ
Assay: Calcium imaging assay (FLIPR), HEK293T-Gα16gust44 cells transfected with human TAS2R1
Assay type: cell-based
Details: Time 72.781 s
Method: This set of bile acids was chosen because of their commercial availability in high purities, their diversity within the class of bile acids and their previous detection and quantitation in human blood. Stock solutions were prepared in DMSO. […] Measured data were negative control corrected by subtracting the signal of the mock-transfected cells and exported to Microsoft Excel using the FLIPR software ScreenWorks 4.2. […]
# Lookup of reported RLU keyed by entry
The figure you give is taken to be in RLU; do not add the unit.

- compound: "C[C@H](CCC(=O)NCCS(=O)(=O)O)[C@H]1CC[C@H]2[C@@H]3[C@H](O)C[C@@H]4C[C@H](O)CC[C@]4(C)[C@H]3C[C@H](O)[C@]12C [Taurocholic Acid, taurocholic acid]"
  target: "human TAS2R1 (Homo sapiens)"
  display_unit: "RLU"
  RLU: 418.773
- compound: "C[C@H](CCC(=O)O)[C@H]1CC[C@H]2[C@@H]3CC[C@@H]4C[C@H](O)CC[C@]4(C)[C@H]3C[C@H](O)[C@]12C [Deoxycholic Acid, deoxycholic acid]"
  target: "human TAS2R1 (Homo sapiens)"
  display_unit: "RLU"
  RLU: 403.47
- compound: "C[C@H](CCC(=O)NCC(=O)O)[C@H]1CC[C@H]2[C@@H]3[C@H](O)C[C@@H]4C[C@H](O)CC[C@]4(C)[C@H]3C[C@H](O)[C@]12C [Glycocholic Acid, glycocholic acid]"
  target: "human TAS2R1 (Homo sapiens)"
  display_unit: "RLU"
  RLU: 606.454

Please give the documented RLU of C[C@H](CCC(=O)NCCS(=O)(=O)O)[C@H]1CC[C@H]2[C@@H]3CC[C@@H]4C[C@H](O)CC[C@]4(C)[C@H]3CC[C@]12C [Taurolithocholic Acid, taurolithocholic acid]
720.827

Taken from paper PMC10247784.
